- Test system: MOLT-4 leukemia
- ASSAY_OVERVIEW: NCI tumour cell line growth inhibition, 48 h
Could you please report measured TGI for the items listed next?

# query: TGI of entry Cc1c(O)c(=O)ccn1C1OC(CO)C(O)C1O (centres undefined) > 100 µM

And what about the compound NC(=O)c1n[nH]n(-c2ccccc2)c1=O ? > 100 µM

And what about the compound Cc1ccc(-c2ccc(Nc3c4ccccc4nc4ccccc34)cc2)cn1 ? 3.59 µM

And what about the compound C=CC1OC(CCCOC(=O)C(C)(C)C)O[C@@H]1CC (some centres undefined) ? > 100 µM

* * *

- Tested on: SF-295 CNS
- ASSAY_OVERVIEW: NCI tumour cell line growth inhibition, 48 h
QUANTITY_KIND: TGI (µM)
Expressed in µM, but write only the number.

# query: TGI of entry COC(=O)C(NC(=O)CNC(=O)CSc1nnc(COc2ccc(Cl)cc2)n1-c1ccccc1)C(C)C (configuration not stated) 34.5

And what about the molecule C=C(C)C1Cc2c(cc(O)c3c(=O)c4ccccc4n(C)c23)O1 (configuration not stated) ? 79.6

And what about the molecule c1ccc2nc3[nH]c4ccccc4c3cc2c1 ? 2.24

And what about the molecule C=C1C(=O)O[C@H]2[C@H]1CC/C(COC(=O)C(=O)c1c[nH]c3ccc(OC)cc13)=C\CC[C@@]1(C)O[C@@H]21 ? 29.5

And what about the molecule O=C1C=CC(=O)C1(Br)Br ? 34.1

* * *

- System: SN12C renal
- ASSAY_OVERVIEW: NCI tumour cell line growth inhibition, 48 h
Could you please report measured GI50 for the items listed next?

# query: GI50 of entry O=S(=O)(NC(=S)Nc1ccccc1)c1ccc(N2N=C3c4ccccc4CC3C2c2cccs2)cc1 (stereo not given) 21.4 µM

And what about the compound CCCCCCCCOc1ccc(/C=N/Nc2cc(C)nc3ccc(Cl)cc23)cc1 ? 1.78 µM

And what about the compound O=C(Oc1ccc([N+](=O)[O-])cc1)N1CCN(Cc2cccc(Oc3ccccc3)c2)CC1 ? > 100 µM

And what about the compound COc1cc2c3c(n(CCCN4CCN(C)CC4)c(=O)c2cc1OC)-c1cc2c(cc1C3=O)OCO2 ? 11.4 µM

And what about the compound O=C(Nc1cnn2ccc(N3CCC[C@@H]3c3cc(F)ccc3F)nc12)N1CC[C@H](O)C1 ? > 100 µM

* * *

- Tested on: SN12C renal
- ASSAY_OVERVIEW: NCI tumour cell line growth inhibition, 48 h
QUANTITY_KIND: GI50

# query: GI50 of entry Nc1nc2c(c3ncccc13)C(c1cccc(Cl)c1)Cc1ncccc1-2 (stereo unspecified) 5.93 µM

And what about the compound Cc1ccc(S(=O)(=O)Oc2ccc3c4c(c(=O)oc3c2)CCCCC4)cc1 ? > 100 µM

And what about the compound C=C(CNCCc1ccc(O)cc1)[C@@H]1CC[C@]2(CO)CC[C@]3(C)[C@H](CC[C@@H]4[C@@]5(C)CCC(=O)C(C)(C)[C@@H]5CC[C@]43C)[C@@H]12 ? 1.65 µM

And what about the compound CC(C)(C)OC(=O)NCCCCCCCCn1c2c(c3ccccc3c1=O)C(=O)c1ccccc1-2 ? > 50 µM

And what about the compound COc1ncc(-c2nc3c(n2C(C)C)[C@H](c2ccc(Cl)cc2)N(c2cc(Cl)cn(C)c2=O)C3=O)c(OC)n1 ? 49.8 µM

And what about the compound COc1cc(NN=C(c2ccc(O)cc2)c2ccc(O)cc2)c([N+](=O)[O-])cc1[N+](=O)[O-] ? 11.2 µM

* * *

- System: OVCAR-4 ovarian
- ASSAY_OVERVIEW: NCI tumour cell line growth inhibition, 48 h
QUANTITY_KIND: TGI (µM)
Expressed in µM, but write only the number.

# query: TGI of entry C=C1C(=O)O[C@H]2[C@H]1CC/C(COC(=O)C(=O)c1c[nH]c3ccc(OC)cc13)=C\CC[C@@]1(C)O[C@@H]21 21.4

And what about the compound Cc1cc(C)c2c(n1)S(=O)(=O)N(CCCN1CCN(c3cccc(C(F)(F)F)c3)CC1)/C(=C(\O)c1ccccc1)C2=O ? 63.9

And what about the compound Nc1nc2ccc([C@@H]3Nc4ccc5[nH]ncc5c4[C@H]4[C@H]5CCC(C5)[C@H]43)cc2s1 ? 6.05

And what about the compound Nc1nc2c(c3ncccc13)C(c1cccc(Cl)c1)Cc1ncccc1-2 (centres undefined) ? 40.5

* * *

- Test system: OVCAR-8 ovarian
- ASSAY_OVERVIEW: NCI tumour cell line growth inhibition, 48 h
QUANTITY_KIND: TGI

# query: TGI of entry Cc1ccc(NS(=O)(=O)c2cc(C(C)(C)C)ccc2OCCOCCOCCOc2ccc(C(C)(C)C)cc2S(=O)(=O)Nc2ccc(C)cc2)cc1 > 100 µM

And what about the compound Nc1c(C(=O)c2cccc(OCCN3CCOCC3)c2)cnn1-c1ccc(F)cc1 ? > 25 µM

And what about the compound OC1C(O)C(O)C(O)C(O)C1O (stereo not given) ? > 1000 µM

And what about the compound Cc1ccc(S(=O)(=O)N2CCC3(C(/C=C/c4ccccc4)=Nc4ccccc43)C2c2ccccc2)cc1 (stereo not given) ? > 100 µM

And what about the compound CCOC(=O)/C=C1\SC(=Nc2ccc(C#N)cc2)N(CCN2C(=O)/C(=C/C(=O)OCC)SC2=Nc2ccc(C#N)cc2)C1=O ? > 63.8 µM

And what about the compound NC1CC2C3CCC2C1C3=O (stereo not given) ? > 100 µM

And what about the compound O=C(Nc1cnn2ccc(N3CCC[C@@H]3c3cc(F)ccc3F)nc12)N1CC[C@H](O)C1 ? > 100 µM

And what about the compound O=C1C=CC(=O)C1(Br)Br ? 24.1 µM

And what about the compound C=C(CN1CCN(c2cccc(C(F)(F)F)c2)CC1)c1ccc(C(=O)Nc2ccccc2N)cc1 ? 17.2 µM

And what about the compound O=c1c2cc(Br)ccc2oc2nc3n(c(=O)c12)CCCS3 ? > 100 µM

* * *

Could you please report measured TGI for the items listed next?
- System: ACHN renal
- ASSAY_OVERVIEW: NCI tumour cell line growth inhibition, 48 h

Given the entry Cc1cc(O)c2c(c1)C(=O)c1cc(O)cc(O)c1C2=O , what TGI was observed with ACHN renal? 73.3 µM

And what about the compound Cn1c(-c2csc(-c3ccc(Cl)cc3)n2)n[nH]c1=S ? 34.8 µM

And what about the compound COc1nn(Cc2ccccc2F)c2ccc([N+](=O)[O-])cc12 ? > 100 µM

And what about the compound OC1C(O)C(O)C(O)C(O)C1O (stereo not drawn) ? > 1000 µM

And what about the compound CN(C)C(=O)CC(C(=O)O)c1c[nH]c2ccccc12 (stereo not drawn) ? > 100 µM

And what about the compound Cn1cc2c(n1)c(N/N=C/c1ccccc1)nn1nnnc21 ? > 100 µM

And what about the compound CN1N=C2c3ccccc3CC[C@H]2C1c1ccccc1 (stereo partly drawn) ? > 100 µM

And what about the compound Cn1c(C(C#N)c2cc(Cl)ncn2)nc2ccccc21 (stereo not drawn) ? > 100 µM

And what about the compound COc1c2ccccc2c(O)c2c(=O)c(C(=O)O)cn(C)c12 ? > 100 µM

And what about the compound Nc1c(C(=O)c2cccc(OCCN3CCOCC3)c2)cnn1-c1ccc(F)cc1 ? > 25 µM

And what about the compound O=C(CSc1nnc(Cc2ccccc2)o1)Nc1ccc(Cl)cc1 ? > 100 µM

And what about the compound Cn1c(N2CCCC2)c(C=O)c(=O)n(C)c1=O ? > 100 µM

And what about the compound Cc1ccc(S(=O)(=O)N2CCC3(C(/C=C/c4ccccc4)=Nc4ccccc43)C2c2ccccc2)cc1 (stereo not drawn) ? > 100 µM

And what about the compound C#CC(O)/C=C/CCCCCCC#CC/C=C\CC#CCCCCCC/C=C/C(O)C#C (stereo not drawn) ? 13.7 µM

And what about the compound Cc1cc(S(=O)(=O)Nc2nc3ccsc3c(=O)n2Cc2ccco2)c(S)cc1Cl ? > 100 µM

And what about the compound COC(=O)[C@H]1[C@H](C(=O)OC)[C@@H](C)c2c(ccc3c2[nH]c2ccccc23)[C@@H]1C ? > 100 µM

And what about the compound CCCCCCOc1ccc(NC2=C(Cl)C(=O)c3cccnc3C2=O)cc1 ? 4.38 µM

And what about the compound N#Cc1c[nH]n2ccnc12 ? > 100 µM

And what about the compound Nc1nc2c(c3ncccc13)C(c1cccc(Cl)c1)Cc1ncccc1-2 (stereo not drawn) ? 67.1 µM

And what about the compound CCOc1ccccc1NC(=O)CCc1nnc2s/c(=C\CCc3ccccc3)c(=O)n12 ? > 100 µM

And what about the compound CC(=O)O[C@H]1[C@@H]2[C@@H]3[C@@H](C[C@H]1C)[C@@H](C)CO[C@@]1(C)CC/C=C(/C)C[C@@H]2O[C@@H]31 ? > 100 µM

And what about the compound O=C(O)Cc1ccc(N2N=C(c3ccccc3)CC2=O)cc1 ? > 100 µM

And what about the compound CC(=O)Oc1ccn2nc(C)c(Br)c2c1Br ? 31.4 µM

Values were extracted from PubChem BioAssay (NCI).
